target: Syk (Homo sapiens)
I'd be grateful if you could share measured IC50 for these entries.

c1cc(Nc2nccc(-c3nccs3)n2)cc(Oc2ccncc2)c1 [Compound I-56] | 500 to 2000 nM
COC(=O)c1ccc(COc2cccc(Nc3nccc(-c4nccs4)n3)c2)cc1 [Compound I-82] | > 2000 nM
FC(F)(F)c1cccc(Nc2nccc(-c3nccs3)n2)c1 [Compound I-37] | < 500 nM
c1cc(Nc2nccc(-c3nccs3)n2)cc(OCCn2cccc2)c1 [Compound I-29] | < 500 nM
Fc1ccc(COc2cccc(Nc3nccc(-c4nccs4)n3)c2)cc1 [Compound I-109] | > 2000 nM

Please go through the list and note IC50 for each compound.
1. O=[N+]([O-])c1cccc(Nc2nccc(-c3nccs3)n2)c1 [Compound I-16]
2. Clc1ccccc1COc1cccc(Nc2nccc(-c3nccs3)n2)c1 [Compound I-88]
3. FC(F)(F)c1cccc(COc2cccc(Nc3nccc(-c4nccs4)n3)c2)c1 [Compound I-106]
4. O=[N+]([O-])c1ccccc1COc1cccc(Nc2nccc(-c3nccs3)n2)c1 [Compound I-35]

A:
["500 to 2000 nM", "> 2000 nM", "> 2000 nM", "> 2000 nM"]

Please go through the list and note IC50 for each compound.
1. Cc1cc(C)cc(Nc2nccc(-c3nccs3)n2)c1 [Compound I-73]
2. c1ccc(Oc2cccc(Nc3nccc(-c4nccs4)n3)c2)cc1 [Compound I-4]

A:
1. < 500 nM
2. 500 to 2000 nM

Please go through the list and note IC50 for each compound.
1. Nc1cccc(COc2cccc(Nc3nccc(-c4nccs4)n3)c2)c1 [Compound I-14]
2. c1cc(Nc2nccc(-c3nccs3)n2)cc(OCc2ccc3c(c2)OCO3)c1 [Compound I-17]
3. c1ccc(COc2cccc(Nc3nccc(-c4nccs4)n3)c2)cc1 [Compound I-7]
4. Cc1ccc(Nc2nccc(-c3nccs3)n2)cc1 [Compound I-67]
5. Clc1cccc(Cl)c1Nc1nccc(-c2nccs2)n1 [Compound I-61]
6. Clc1ccc(Nc2nccc(-c3nccs3)n2)cc1 [Compound I-46]

A:
1. 500 to 2000 nM
2. < 500 nM
3. < 500 nM
4. < 500 nM
5. > 2000 nM
6. > 2000 nM

Please go through the list and note IC50 for each compound.
1. CS(=O)(=O)c1ccc(COc2cccc(Nc3nccc(-c4nccs4)n3)c2)cc1 [Compound I-5]
2. c1cncc(COc2cccc(Nc3nccc(-c4nccs4)n3)c2)c1 [Compound I-23]

A:
1: < 500 nM; 2: < 500 nM
